# Tested on: RXF 393 renal
# test.method.notes: NCI-60 one-dose screen, 48 h (100 = growth as untreated, 0 = no growth, -100 = all killed)
# recorded.conditions: 10 µM unless noted
About 83,000 compounds went through this panel and 20% of them were active in at least one assay; those are over-represented in the sample as a whole.

chemical.string | system | growth, %
O=c1c2cc(C(F)(F)F)ccc2sc2c(NCCCNCCO)nc3ccccc3c12 | RXF 393 renal | 42.6
COc1ccc(-n2c(N)c(-c3nc4ccccc4[nH]3)cc(C#N)c2=O)cc1 | RXF 393 renal | 67.2
Cc1ccc2c(n1)C(=O)C(Cl)=C(Nc1ccccc1C(C)C)C2=O | RXF 393 renal | 83.6
COc1cccc(Cc2nn3cc(-c4ccccc4)nc3s2)c1 | RXF 393 renal | 117
CCS(=O)(=O)c1ncnc2nc[nH]c12 | RXF 393 renal | 113
Oc1ccc(Cl)cc1Cc1cc(Cl)cc(Cl)c1O | RXF 393 renal | 74

====

Each entry below carries its reported growth.
# Test system: NCI-H226 lung
# test.method.notes: NCI-60 one-dose screen, 48 h (100 = growth as untreated, 0 = no growth, -100 = all killed)
# recorded.conditions: 10 µM unless noted
The panel holds about 83,000 compounds, 20% with a hit somewhere; the sample as a whole holds those more often.

compound | growth (%)
C=C1C(=O)O[C@H]2[C@H]1CC/C(COC(=O)NCCOCCOCC(=O)Nc1ccc(OC)c(C(N)=O)c1O)=C\CC[C@@]1(C)O[C@@H]21 | 89.8
COc1ccc(-c2c(C(=O)NS(C)(=O)=O)n(Cc3cccc(C(F)(F)F)c3)c3ccccc23)cc1 | 82.1
NCCCNc1nc2ccccc2c2c(=O)c3cccc(F)c3sc12 | 64.1
O=C(Nc1c2ccccc2nc2ccccc12)c1ccccc1CN1C(=O)c2ccccc2C1=O | 40.2
O=C1NC(=O)C(c2ccccc2)(c2ccccc2)N1Cc1cn(-c2c3ccccc3nc3ccccc23)nn1 | 99.5
COC(=O)[C@H](C)NC(=O)NC(=O)NC(=O)CI | 89.2
COc1ccc2sc3c(NCCCN(C)C)nc4ccccc4c3c(=O)c2c1 | 82.4
O=C(N=c1oc2ccccc2cc1-c1cc2ccccc2[nH]1)Nc1ccc(Cl)cc1 | 95.9
CCOC(=O)C1=C(N)Oc2c(sc3c(C)cccc23)C1c1ccc(F)cc1 (centres undefined) | 9.65
COc1cc(C(=O)N/N=C/c2cc3cc(OCc4ccccc4)ccc3nc2OC)cc(OC)c1OC | 78.4
CC(=O)OC[C@H]1OC(Sc2sc(C(=O)c3ccc(Cl)cc3)c(N)c2-c2nc3ccccc3s2)[C@H](OC(C)=O)[C@@H](OC(C)=O)[C@@H]1OC(C)=O (some centres undefined) | 75.9
CCN1C(=O)N(CC)C2Nn3c(s/c(=C\c4ccc([N+](=O)[O-])cc4)c3=O)=NC21 (centres undefined) | 80.1
COC(=O)CCC/C=C\C[C@H]1C=CC(=O)/C1=C/C[C@@H](O)CCc1cccc(C(F)(F)F)c1 | -48.4
Cc1ccc(-c2nn(C)c(=O)c3noc(-c4ccc(C)cc4)c23)cc1 | 58
C#C[C@]1(O)CC[C@H]2[C@@H]3CC=C4c5sc(Nc6ccccc6)nc5CC[C@]4(C)[C@H]3CC[C@@]21C | 62.7
Nc1ccc(Sc2ccc([N+](=O)[O-])c3nonc23)cc1 | 96.5
C/C=C(\C)C(=O)N[C@H]1[C@@H](OC(C)=O)C[C@]2(C)C3CC[C@@]4(C)C(CC[C@@H]4C(C)N(C)C)C3CCC2[C@H]1O (some centres undefined) | 101
CCCCN(C)N=Nc1ccc(C(N)=O)cc1 | 124
Cc1cccc(NC2=C(Cl)C(=O)c3nc(C)ccc3C2=O)c1 | -0.0359
